assay_target: Programmed cell death protein 1/Programmed cell death 1 ligand 1 (Homo sapiens, UniProt Q15116+Q9NZQ7)
Sequence (Q15116 whole entry): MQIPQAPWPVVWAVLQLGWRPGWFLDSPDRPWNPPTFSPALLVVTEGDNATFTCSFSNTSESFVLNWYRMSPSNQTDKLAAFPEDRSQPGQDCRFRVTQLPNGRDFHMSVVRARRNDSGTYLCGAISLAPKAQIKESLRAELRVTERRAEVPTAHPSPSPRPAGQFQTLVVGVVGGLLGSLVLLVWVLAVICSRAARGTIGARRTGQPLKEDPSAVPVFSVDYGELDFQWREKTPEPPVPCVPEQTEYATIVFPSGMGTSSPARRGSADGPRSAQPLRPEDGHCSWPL
Sequence (Q9NZQ7 whole entry): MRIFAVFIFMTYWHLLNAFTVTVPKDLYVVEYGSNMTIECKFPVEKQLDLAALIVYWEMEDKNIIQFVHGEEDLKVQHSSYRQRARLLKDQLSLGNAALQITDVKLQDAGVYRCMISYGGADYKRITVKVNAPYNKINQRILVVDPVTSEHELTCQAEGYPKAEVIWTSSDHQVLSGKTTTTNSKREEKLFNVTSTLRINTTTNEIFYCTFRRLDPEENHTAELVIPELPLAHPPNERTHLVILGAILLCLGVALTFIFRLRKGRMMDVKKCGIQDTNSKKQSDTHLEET
experiment_notes: Inhibition of PD-1/PD-L1 (unknown origin) protein-protein interaction incubated for 15 mins by TR-FRET assay
quantity_kind: log10 of IC50 (log10 of the value in nM)

{"columns": ["smiles_str", "quantity_kind", "experimental_value"],
 "data": [
  ["COc1nc(O[C@H]2CCc3c(-c4ccc5c(c4)OCCO5)cccc32)c(Cl)cc1CNC[C@@H](O)CO", "log10 of IC50", 1.12],
  ["COc1nc(O[C@H]2CCc3c(-c4ccc(F)c(F)c4)cccc32)c(Cl)cc1CNCCO", "log10 of IC50", 1.75],
  ["COc1nc(O[C@H]2CCc3c(-c4ccc5c(c4)OCCO5)cccc32)c(Cl)cc1CNCCN(C)C", "log10 of IC50", 1.66],
  ["COc1nc(O[C@H]2CCc3c(-c4ccc5c(c4)OCCO5)cccc32)c(Cl)cc1CNCCC(N)=O", "log10 of IC50", 1.31],
  ["COc1nc(O[C@H]2CCc3c(-c4ccc5c(c4)OCCO5)cccc32)c(Cl)cc1CNCCNC(C)=O", "log10 of IC50", 1.21],
  ["COc1nc(O[C@@H]2CCc3c(-c4ccc5c(c4)OCCO5)cccc32)c(Cl)cc1CN1CC(O)C1", "log10 of IC50", 1.29],
  ["COCCNCc1cc(Cl)c(O[C@H]2CCc3c(-c4ccc5c(c4)OCCO5)cccc32)nc1OC", "log10 of IC50", 1.63],
  ["COc1nc(O[C@H]2CCc3c(-c4ccc5c(c4)OCCO5)cccc32)c(Cl)cc1CNC[C@@H]1CCC(=O)N1", "log10 of IC50", 1.20],
  ["COc1nc(O[C@H]2CCc3c(-c4ccc5c(c4)OCCO5)cccc32)c(Br)cc1CNCCO", "log10 of IC50", 1.71],
  ["COc1nc(O[C@@H]2CCc3c(-c4ccccc4)cccc32)ccc1CNCCNC(C)=O", "log10 of IC50", 1.93],
  ["COc1nc(O[C@H]2CCCc3c(-c4ccccc4)cccc32)ccc1CNCCNC(C)=O", "log10 of IC50", 1.68],
  ["COc1nc(O[C@H]2CCc3c(-c4ccc5c(c4)OCCO5)cccc32)c(Cl)cc1CN1CC[C@H](C(=O)O)C1", "log10 of IC50", 1.21],
  ["COCCOc1cccc(-c2cccc3c2CC[C@@H]3Oc2nc(OC)c(CNCCO)cc2Cl)c1", "log10 of IC50", 1.98],
  ["COc1nc(O[C@H]2CCc3c(-c4ccccc4)cccc32)ccc1CNCCNC(C)=O", "log10 of IC50", 1.32],
  ["COc1nc(O[C@H]2CCc3c(-c4ccccc4)cccc32)c(Cl)cc1CNCCO", "log10 of IC50", 0.88],
  ["COc1nc(O[C@H]2CCc3c(-c4ccc5c(c4)OCCO5)cccc32)c(Cl)cc1CNCC(F)(F)F", "log10 of IC50", 1.83]
]}
